Target: JAK1 (Homo sapiens (Human))
Sequence (P23458 850-1154): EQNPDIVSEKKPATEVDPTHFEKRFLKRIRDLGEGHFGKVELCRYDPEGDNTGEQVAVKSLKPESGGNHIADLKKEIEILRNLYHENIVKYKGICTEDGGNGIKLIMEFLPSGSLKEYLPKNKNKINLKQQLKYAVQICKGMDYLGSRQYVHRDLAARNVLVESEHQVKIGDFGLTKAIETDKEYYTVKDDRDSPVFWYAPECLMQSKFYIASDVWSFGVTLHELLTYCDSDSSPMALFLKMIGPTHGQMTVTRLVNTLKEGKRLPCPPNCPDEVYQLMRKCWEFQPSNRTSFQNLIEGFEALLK
Experiment: JAK kinase assay (HTRF), JAK1
Conditions: catalytic domain, ATP at Km (7 μM)
pEC50: −log10 of the molar value.
Criterion: pEC50 meeting or surpassing 8. Met: t. Not met: f.

INSERT INTO assay_data (molecule, classification) VALUES
  ('COc1cc(F)ccc1[C@@H](C)NC(=O)C1CCN(c2ncnc3[nH]ccc23)CC12CC2 (some centres unmarked)', 'f'),
  ('C[C@H](NC(=O)[C@H]1CCN(c2ncnc3[nH]ccc23)CC12CC2)[C@@H](O)C1CCCC1', 't'),
  ('O=C(NCC1(CO)CCCC1)[C@H]1CCN(c2ncnc3[nH]ccc23)CC12CC2', 't'),
  ('O=C(NCC1CC(F)(F)C1)[C@H](O)CNC(=O)[C@H]1CCN(c2ncnc3[nH]ccc23)CC12CC2 (single isomer, unassigned)', 'f'),
  ('N#Cc1ccc([C@H](O)CNC(=O)[C@@H]2CCN(c3ncnc4[nH]ccc34)CC23CC3)cc1', 'f'),
  ('C[C@H](NC(=O)[C@H]1CCN(c2ncnc3[nH]ccc23)CC12CC2)[C@@H](O)c1ccc(C#N)cc1', 't'),
  ('O=C(N[C@H](CO)C1CCC1)[C@H]1CCN(c2ncnc3[nH]ccc23)CC12CC2', 'f');
